Data origin: patent US11371056B2

- System: Pseudomonas fluorescens HPPD polypeptide (wild-type and mutants)
- METHOD NOTES: Coupled HPPD activity assay: turnover and residual turnover in crude HPPD polypeptide extracts with and without Cmpd. 1
- Assay type: biochemical
- CONDITION SUMMARY: 100 μM Cmpd. 1, normalised to turnover without inhibitor
MEASURED QUANTITY: Residual turnover [%] (%)
Form entry: value (%) — number only.

Q. Which Residual turnover [%] is listed for SEQ ID NO:54 (protein, mutant HPPD polypeptide) MADLYENPMGLMGFEFIEFASPTPGTLEPIFEIMGFTKVATHRSKNVHLYRQGEINLILNNEPNSIASYFAAEHGPSVCGMAFRVKDSQKAYNRALELGAQPIHIDTGPMELNLPAIKGIGGAPLYLIDRFGEGSSIYDIDFVYLEGVERNPVGAGLKVIDHLTHNVYRGRMVYWANFYEKLFNFREARYFDIKGEYTGLTSKAMSAPDGMIRIPLNEESSKGAGQIEEFLMQFNGEGIQHVAFLTDDLVKTWDALKKIGMRFLTAPGDEYYEMLEGRLPDHGEPVDQLQARGILLDGSSVEGDKRLLLQIFSEKLMGPVFFEFIQRKGDDGFGPHSFKVLFEQMERDQVRRGVLTAD ?
A. 82
